Each recorded value in this set is attributed to ChEMBL document CHEMBL4689842.

# Test system: HEK-293T
# Experimental Protocol: Multiplex assay against HEK293T
# Type: toxicity, cell-based
# Condition Summary: human, 12 h, 1 µM, compound concentration 1 uM, replicate 2
# label = yes if Population Fragmented Nuclei (%) < 4% else no

Before answering, review these 5 worked examples.
Compound	Cat
CCNc1cc(N[C@H]2CC[C@H](O)CC2)nc(Nc2ccc3c(ccn3Cc3ccccc3)c2)n1	yes
COc1cccc2cc(-c3nc([C@H]4CC[C@H](C(=O)O)CC4)n4ncnc(N)c34)[nH]c12 [OSI-027]	no
O=C(Nc1ccc(Cl)cc1)Nc1cccc(-c2cccc(N3CCCC3)n2)c1	no
CCc1cccc(CC)c1NC(=O)c1nn(C)c2c1CCc1cnc(Nc3ccc(N4CCN(C)CC4)cc3OC)nc1-2	yes
CCN1CCN(Cc2ccc(Nc3ncc(F)c(-c4cc(F)c5nc(C)n(C(C)C)c5c4)n3)nc2)CC1.CS(=O)(=O)O	no

Q: Identify whether the compound O=C(Cc1ccc(-c2ccc(OCCN3CCOCC3)cc2)cn1)NCc1ccccc1 [TIRBANIBULIN] records Population Fragmented Nuclei (%) below 4%.
Result: no

----------
# Tested on: U2OS
# Experimental Protocol: Incucyte cell viability with U2OS; further: filed as whole numbers so only -1 and 0 and 1 occur
# Format: toxicity, cell-based
# Condition Summary: human, 24 h, 10 µM, compound concentration 10 uM, replicate number 1, timepoint 24 hours
Measurement Type: Growth Rate
Give bare numbers.

Molecule	Growth Rate
CCNc1cc(N[C@H]2CC[C@H](O)CC2)nc(Nc2ccc3c(ccn3Cc3ccccc3)c2)n1	0
CN(C)C(=O)C(CCN1CCC(O)(c2ccc(Cl)cc2)CC1)(c1ccccc1)c1ccccc1.Cl [LOPERAMIDE HYDROCHLORIDE]	0
CCCS(=O)(=O)Nc1ccc(F)c(C(=O)c2c[nH]c3ncc(Cl)cc23)c1F	0
CC(C)c1onc(-c2c(Cl)cccc2Cl)c1COc1ccc(/C=C/c2cccc(C(=O)O)c2)c(Cl)c1	1
CC1(C)CCC(C)(C)c2cc(NC(=O)c3ccc(C(=O)O)cc3)ccc21	1
Cc1cn(-c2cc(NC(=O)c3ccc(C)c(Nc4nccc(-c5cccnc5)n4)c3)cc(C(F)(F)F)c2)cn1	0
CCCCCNC(=O)NS(=O)(=O)c1cc([N+](=O)[O-])ccc1NC1CCCCC1	1

# ---- query molecule ----
Q: For the molecule shown here, `CNC(=O)c1ccccc1Nc1cc(Nc2ccc(N3CCOCC3)cc2OC)ncc1C(F)(F)F` , give the reported Growth Rate.
Result: 0

----------
# Tested on: U2OS
# Experimental Protocol: Incucyte cell viability with U2OS; further: filed as whole numbers so only -1 and 0 and 1 occur
# Type: toxicity, cell-based
# Condition Summary: human, 18 h, 10 µM, compound concentration 10 uM, replicate number 2, timepoint 18 hours
Measurement Type: Growth Rate

Example entries and their recorded answers appear below.
Compound Structure	Study System	Measurement Type	Recorded Measurement
CCN1CCN(Cc2ccc(Nc3ncc(F)c(-c4cc(F)c5nc(C)n(C(C)C)c5c4)n3)nc2)CC1.CS(=O)(=O)O	U2OS	Growth Rate	1
CN(C)C(=O)c1cc2cnc(Nc3ccc(N4CCNCC4)cn3)nc2n1C1CCCC1	U2OS	Growth Rate	1
COc1cc2c(CCNC(C)=O)c[nH]c2cc1Cl	U2OS	Growth Rate	1

Go through the list and state Growth Rate for each entry.
1. Cl.O=C([C@@H](Cc1cccc(C(F)(F)F)c1)NS(=O)(=O)c1cc(F)c2c(c1)CCNC2)N1CCCC1
2. COc1cc(OC)cc(-c2noc(N3CCN(C)C4(CCN(c5ccnc(C)c5)CC4)C3)n2)c1

Result:
1. 1
2. 1
